Listed below: pEC50 values for each entry.
- TESTED TARGET: RORα LBD (Homo sapiens (Human))
- Sequence (P35398 272-510): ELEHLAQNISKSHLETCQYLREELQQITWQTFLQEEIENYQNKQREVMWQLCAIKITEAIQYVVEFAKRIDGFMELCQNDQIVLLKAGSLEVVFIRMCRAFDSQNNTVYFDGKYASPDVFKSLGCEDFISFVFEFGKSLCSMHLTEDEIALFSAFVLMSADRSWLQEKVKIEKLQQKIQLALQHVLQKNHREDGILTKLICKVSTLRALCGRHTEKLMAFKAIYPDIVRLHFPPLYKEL
- METHOD DESCRIPTION: TR-FRET co-activator D22 interaction with RORα LBD
- Format: biochemical
- CONDITION DETAILS: 20 hr; co-activator recruitment (π); read-out: RORα EC50 D22 20 hr (demonstrates co-activator recruitment)
pEC50: −log10 of the molar value.

MOLECULE	pEC50
CC(=O)Nc1ccc2c(c1)CCN2Cc1ccc(C(N)=O)cc1 [Example 11]	> 4.52

Now look at this entry.
Inquiry: Which pEC50 reading was recorded for the molecule CNC(=O)c1ccc(CN2CCc3cc(NC(C)=O)ccc32)cc1 [Example 12] ?
Reply text: > 4.52
